assay: AUC (0 to infinity) in beagle dog at 3 mg/kg, po by LC-MS/MS method; assay type: ADME, organism-based, Canis lupus familiaris; set-up: dose 3 mg/kg, route oral, time infinity; details: in vivo
property-name: AUC(0-inf) (µg·h/mL)
Enter your answer as a number in µg·h/mL; do not include the unit.

Input CS(=O)(=O)O.Cc1cc(Nc2ncc(Cl)c(Nc3cn(C)nc3S(=O)(=O)C(C)C)n2)c(OC(C)C)cc1C1CCN(C)CC1 . Output AUC(0-inf): 0.952

* * *

test: Antiproliferative activity against human KARPAS299 cells assessed as inhibition of cell proliferation incubated for 96 hrs by cell-titer-Glo assay; format: functional, cell-based; details: KARPAS-299, 96 h
Field: pIC50. Provide a value for each of the compounds that follow.
// pIC50 is dimensionless: -log10 of concentration (M)

Input Cc1cc(Nc2ncc(Cl)c(Nc3cn(C)nc3S(=O)(=O)C(C)C)n2)c(OC(F)(F)F)cc1C1CCN(C)CC1 . Output pIC50: 7.70

Input CC(C)S(=O)(=O)c1nn(C)cc1Nc1nc(Nc2cc(Cl)c(C3CCN(C)CC3)cc2OC2CC2)ncc1Cl . Output pIC50: 7.82

Input Cc1cc(Nc2ncc(Cl)c(Nc3cn(C)nc3S(=O)(=O)C(C)C)n2)c(OCC2CC2)cc1C1CCN(C)CC1 . Output pIC50: 7.13

Input Cc1cc(Nc2ncc(Cl)c(Nc3cn(C)nc3S(=O)(=O)C(C)C)n2)c(OC(C)C)cc1C1CCN(C)C1 (configuration not stated) . Output pIC50: 7.96

Input Cc1cc(Nc2ncc(Cl)c(Nc3cn(C)nc3S(=O)(=O)C(C)C)n2)c(OC(C)C)cc1C1CCNCC1 . Output pIC50: 7.77

Input Cc1cc(Nc2ncc(Cl)c(Nc3cn(C)nc3S(=O)(=O)C(C)C)n2)c(C(F)(F)F)cc1C1CCN(C)CC1 . Output pIC50: 7.13

Input CC(C)S(=O)(=O)c1nn(C)cc1Nc1nc(Nc2cc(C#N)c(C3CCN(C)CC3)cc2OC2CC2)ncc1Cl . Output pIC50: 7.00

Input Cc1cc(Nc2ncc(Cl)c(Nc3cn(C)nc3S(=O)(=O)C(C)C)n2)c(OCC2CC2)cc1C1CCNCC1 . Output pIC50: 7.37

Input CC(C)S(=O)(=O)c1nn(C)cc1Nc1nc(Nc2ccc(C3CCN(C)CC3)cc2OC2CC2)ncc1Cl . Output pIC50: 8.15

Input Cc1cc(Nc2ncc(Cl)c(Nc3cn(C)nc3S(=O)(=O)C(C)C)n2)c(OC(C)C)cc1C1CNC1 . Output pIC50: 7.22

Input Cc1cc(Nc2ncc(Cl)c(Nc3cn(C)nc3S(=O)(=O)C(C)C)n2)c(OC2CC2)cc1C1CCCN(C)C1 (configuration not stated) . Output pIC50: 8.52

Input Cc1cc(Nc2ncc(Cl)c(Nc3cn(C)nc3S(=O)(=O)C(C)C)n2)c(OC2CC2)cc1C1CCNCC1 . Output pIC50: 8.05
